target: T1, recombinant CD47 (recCD47), SinoBiological 12283-H27H-B, biotinylated (human, UniProt Q08722 19-139, biotinylated (AVI-tag)); assay: SPR Biacore S200, single-cycle, recCD47 on SA chip 100 RU, antibody as analyte, 25 C, 1:1 model;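 also: antibodies were injected over the captured CD47 at a series of concentrations, and KD was derived as the dissociation rate constant divided by the association rate constant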
T1 construct: Bought protein, 17 kDa; At 17 kDa it can only be a part of it; also called recombinant biotinylated CD47; not shown: C-terminal His- and AVI-tag
T1 sequence (Q08722 19-139 limits assumed): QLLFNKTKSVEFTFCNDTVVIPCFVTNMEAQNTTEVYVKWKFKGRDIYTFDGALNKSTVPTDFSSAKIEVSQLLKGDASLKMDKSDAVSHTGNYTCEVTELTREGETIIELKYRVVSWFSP
Recorded Kd by entry
Note to self: number, then unit, no commentary.

- binder: "CO203 humanized IgG4 anti-CD47 antibody (antibody, V domains shown, also called huCO-mAb) VH: QVQLVQSGSELKKPGASVKVSCKASGYTFTNFGMHWVRQAPGQGLKWMGWINTYTGEPTYTDDFKGRFVFSLDTSVSTAYLQISSLKAEDTAVYYCTRGDYRYGDSWGQGTTVTVSS VL: DIVMTQTPLSLSVTPGQPASISCRSSQSLVHSNGKTYLHWYLQKPGQPPQLLIYRVSNRFSGVPDRFSGSGSGTDFTLKISRVEAEDVGVYYCSQSTHVPFTFGQGTKLEIK"
  Kd: "0.0164 nM"
- binder: "CO210 humanized IgG4 anti-CD47 antibody (antibody, V domains shown, also called huCO-mAb) VH: QVQLVQSGSELKKPGASVKVSCKASGYTFTNFGMHWVRQAPGQGLEWMGWINTYTGEPTYTDDFKGRFVFSLDTSVSTAYLQISSLKAEDTAVYYCTRGDYRYGDSWGQGTTVTVSS VL: DIVMTQTPLSLSVTPGQPASISCRSSQSLVHSNGKTYLHWYLQKPGQSPKLLIYRVSNRFSGVPDRFSGSGSGTDFTLKISRVEAEDVGVYYCSQSTHVPFTFGQGTKLEIK"
  Kd: "0.017 nM"

Q: Fill in: Kd of CO202 humanized IgG4 anti-CD47 antibody (antibody, V domains shown, also called huCO-mAb) VH: QVQLVQSGSELKKPGASVKVSCKASGYTFTNFGMHWVRQAPGQGLEWMGWINTYTGEPTYTDDFKGRFVFSLDTSVSTAYLQISSLKAEDTAVYYCTRGDYRYGDSWGQGTTVTVSS VL: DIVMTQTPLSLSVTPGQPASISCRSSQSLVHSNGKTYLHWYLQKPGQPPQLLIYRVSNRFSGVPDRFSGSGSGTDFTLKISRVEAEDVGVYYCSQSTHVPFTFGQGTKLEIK is ___
A: 0.023 nM

Q: Fill in: Kd of CO212 humanized IgG4 anti-CD47 antibody (antibody, V domains shown, also called huCO-mAb) VH: QVQLVQSGSELKKPGASVKVSCKASGYTFTNFGMHWVRQAPGKGLKWMGWINTYTGEPTYTDDFKGRFVFSLDTSVSTAYLQISSLKAEDTAVYYCTRGDYRYGDSWGQGTTVTVSS VL: DIVMTQTPLSLSVTPGQPASISCRSSQSLVHSNGKTYLHWYLQKPGQSPKLLIYRVSNRFSGVPDRFSGSGSGTDFTLKISRVEAEDVGVYYCSQSTHVPFTFGQGTKLEIK is ___
A: 0.0123 nM

Q: Fill in: Kd of CO211 humanized IgG4 anti-CD47 antibody (antibody, V domains shown, also called huCO-mAb) VH: QVQLVQSGSELKKPGASVKVSCKASGYTFTNFGMHWVRQAPGQGLKWMGWINTYTGEPTYTDDFKGRFVFSLDTSVSTAYLQISSLKAEDTAVYYCTRGDYRYGDSWGQGTTVTVSS VL: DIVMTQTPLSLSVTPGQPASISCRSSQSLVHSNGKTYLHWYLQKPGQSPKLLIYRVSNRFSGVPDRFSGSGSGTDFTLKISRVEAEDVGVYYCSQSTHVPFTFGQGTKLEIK is ___
A: 0.0135 nM

FYI, the data here is from patent US20260234246A1.
